assay: chemical genetic growth profiling, strain panel (AID 1159580);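 note: tested at 20 µM; growth read once vehicle control cultures reached saturation at 30 °C; 1 = growth at the plate median or of vehicle wells; lower values mean less growth of the strain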; details: S. cerevisiae deletion strains, growth OD, locus YNL250W, strain rad50
Among all 5,500 compounds or so, about 2,000 (36%) were called active. Not shown: some 18% with an inconclusive outcome. Cut-off read from the data, not from the text of the source: active = normalized growth mostly below about 0.91 (no sharp cut-off); inconclusive = no clear call, values can overlap the other calls; inactive = mostly above about 0.92. The list shows a part of the results.
Output constraint: value belongs to active, inactive

Previously resolved entries follow.
1) COC(=O)c1c(Cl)c(Cl)c(C(=O)OC)c(Cl)c1Cl    inactive
2) NC[C@@H]1O[C@H](O[C@@H]2[C@@H](CO)OC(O[C@@H]3[C@@H](O)[C@H](N)C[C@H](N)[C@H]3OC3O[C@H](CN)[C@@H](O)[C@H](O)[C@H]3N)[C@@H]2O)[C@H](N)[C@@H](O)[C@@H]1O (some centres undefined)    inactive
3) COc1cc(O)c(C(=O)c2ccccc2)cc1O    inactive

Could you kindly confirm the outcome this assay logged for CC(C)(C)CC(C)(C)c1ccc(OCCOCC[N+](C)(C)Cc2ccccc2)cc1 ?
inactive

Moving on to the next compound: Cc1cc(C(C)(C)CC(C)(C)C)ccc1OCCOCC[N+](C)(C)Cc1ccccc1
active

Moving on to the next compound: CC(C)[N+](C)(CCOC(=O)C1c2ccccc2Oc2ccccc21)C(C)C
inactive

Moving on to the next compound: C=C1CC[C@H](O)C/C1=C/C=C1\CCC[C@]2(C)C([C@H](C)/C=C/[C@H](C)C(C)C)CC[C@@H]12 (some centres undefined)
inactive

Moving on to the next compound: COc1cccc2c1CCC1CC(=O)CCC21C (centres undefined)
inactive

Moving on to the next compound: NC(N)=NOCC[C@H](N)C(=O)O
inactive

---

assay: chemical genetic growth profiling, strain panel (AID 1159580);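 note: tested at 20 µM; growth read once vehicle control cultures reached saturation at 30 °C; 1 = growth at the plate median or of vehicle wells; lower values mean less growth of the strain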; details: S. cerevisiae deletion strains, growth OD, locus YER110C, active compounds read low
Hit rate of the full screen: of about 5,500 compounds, about 2,000 (36%) were called active. Inconclusive results (about 18%) are left out. The list shows a part of the results.
This section presents compounds with their documented normalized growth values.
Keep the answer to the number alone.

1) O=C(O)C1C(O)CCC2CN3CCc4c([nH]c5ccccc45)C3CC21 (stereo unspecified)    1.02
2) NC(N)=NOCC[C@H](N)C(=O)O    0.984
3) CNC1(C)C2CCC(C2)C1(C)C (stereo unspecified)    0.993
4) C[CH2][Hg][S]c1ccccc1C(=O)O    0.0716
5) COC(=O)[C@@H]1C(O)CC[C@H]2CN3CCc4c([nH]c5ccccc45)[C@@H]3C[C@@H]21 (stereo partly specified)    0.982
6) Cc1cc(C(C)(C)CC(C)(C)C)ccc1OCCOCC[N+](C)(C)Cc1ccccc1    0.0699
7) NC/C=C/C(=O)O    1.02
8) O=C(O)C1CC([C@@H]2CCCCN2)CN2CCCCC12 (stereo partly specified)    0.992

For the compound shown here, CCc1ccc(CCOc2ccc(CC3SC(=O)NC3=O)cc2)nc1 (stereo unspecified) , give the reported normalized growth.
0.997

Moving on to the next compound: CN1C2CC3C[C@H]1C(O3)C2O (stereo partly specified)
1.04

Moving on to the next compound: CCC(C(N)=O)c1ccccc1 (stereo unspecified)
0.987

Moving on to the next compound: COc1c(O)cc2oc3cc(O)c(CC=C(C)C)c(O)c3c(=O)c2c1CC=C(C)C
0.952

Moving on to the next compound: CC1(C)C2CC[C@]3(C)C(C(=O)C=C4[C@@H]5C[C@@](C)(C(=O)O)CC[C@]5(C)CC[C@]43C)[C@@]2(C)CC[C@@H]1O (stereo partly specified)
1.04

Moving on to the next compound: NC(=O)N1c2ccccc2CC(=O)c2ccccc21
0.975

Moving on to the next compound: CC(=O)O[C@]1(C(C)=O)CCC2C3C[C@H](C)C4=CC(=O)CC[C@]4(C)C3CC[C@@]21C (stereo partly specified)
0.96

Moving on to the next compound: O=c1ccc2cc(O)c(O)cc2o1
0.991

Moving on to the next compound: C[N+](C)(C)CCOP(=O)([O-])OP(=O)(O)OC[C@H]1OC(n2ccc(N)nc2=O)[C@H](O)[C@@H]1O (stereo partly specified)
1

Moving on to the next compound: COC(=O)[C@H]1[C@H]2C[C@H]3c4[nH]c5ccccc5c4CCN3C[C@H]2CC[C@@H]1O
1

Moving on to the next compound: COc1ccc(-c2coc3c(OC)c(OC)cc(O)c3c2=O)cc1
0.959

Moving on to the next compound: O=C1C[C@@H](c2ccccc2)Oc2cc(O)cc(O)c21
0.924

Moving on to the next compound: CC1(C)C2CC[C@]3(C)C(C(=O)C=C4[C@@H]5C[C@@](C)(C(=O)O)CC[C@]5(C)CC[C@]43C)[C@@]2(C)CC[C@@H]1OC(=O)CCC(=O)O (stereo partly specified)
0.982

Moving on to the next compound: Cc1c(O)cc(O)c2c(=O)c(-c3ccc(O)cc3)coc12
1.02

Moving on to the next compound: COc1ccc(-c2coc3c(OC)c(O)ccc3c2=O)cc1
0.953

Moving on to the next compound: O=C1CC(c2ccccc2)Oc2ccccc21 (stereo unspecified)
0.963

Moving on to the next compound: COc1ccc(-c2coc3c(O)c(OC)ccc3c2=O)cc1
0.904

Moving on to the next compound: CNc1ccccc1C(=O)N1CCc2c([nH]c3ccccc23)C1=O
0.986

Moving on to the next compound: COC(=O)C1[C@H]2C[C@H]3c4[nH]c5ccccc5c4CCN3C[C@@H]2CC[C@@H]1O (stereo partly specified)
1.01
